ASSAY SYSTEM: T1, human LILRB2 expressed on cells (293T-LILRB2, CHO-K1-LILRB2) (human, UniProt Q8N423 22-597)
T1 construct: whole, on cells; the cell line is named under assay; also called HEK293T-LILRB2
T1 sequence (Q8N423 22-597): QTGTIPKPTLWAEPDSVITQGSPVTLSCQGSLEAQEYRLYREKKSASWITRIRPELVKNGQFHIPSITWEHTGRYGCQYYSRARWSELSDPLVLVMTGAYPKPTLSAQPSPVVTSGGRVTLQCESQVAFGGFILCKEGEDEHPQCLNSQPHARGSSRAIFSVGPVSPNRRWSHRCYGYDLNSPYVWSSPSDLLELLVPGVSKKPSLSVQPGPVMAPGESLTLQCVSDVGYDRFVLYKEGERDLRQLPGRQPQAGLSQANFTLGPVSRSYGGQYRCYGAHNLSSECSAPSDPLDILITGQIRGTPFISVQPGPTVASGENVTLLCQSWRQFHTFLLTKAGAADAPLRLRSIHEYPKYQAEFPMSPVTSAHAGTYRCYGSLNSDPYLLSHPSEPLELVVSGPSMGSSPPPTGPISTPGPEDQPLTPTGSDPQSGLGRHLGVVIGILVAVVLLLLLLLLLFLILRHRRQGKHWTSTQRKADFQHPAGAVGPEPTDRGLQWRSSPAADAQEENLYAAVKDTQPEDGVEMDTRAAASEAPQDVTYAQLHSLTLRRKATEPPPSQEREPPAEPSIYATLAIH
ASSAY NOTES: flow cytometry, 293T-LILRB2 cells
Bmax values by entry
# output: bare number, no unit

Observe how each entry below is paired with its result.
Antibody 2E1_FH2 (antibody, V domains shown) VH: EVQLVESGGGLVQPGGSLRLSCAVSGYSITSGYYWNWIRQAPGKGLEWVASISYDGNNNYNPSLKNRFTISRDTSKNTFYLQMNSLRAEDTAVYYCAREESTMITTAWFAYWGQGTLVTVSS VL: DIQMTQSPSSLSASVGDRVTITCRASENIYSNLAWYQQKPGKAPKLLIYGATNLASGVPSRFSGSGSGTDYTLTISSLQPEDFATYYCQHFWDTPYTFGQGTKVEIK = 420000
Antibody 2E1_FC3 (antibody, V domains shown) VH: EVQLVESGGGLVQPGGSLRLSCAVSGYSITSGYYWNWIRQAPGKGLEWVAYISYDGNTNYNPSLKNRFTISRDTSKNTFYLQMNSLRAEDTAVYYCAREESTMITTAWFAYWGQGTLVTVSS VL: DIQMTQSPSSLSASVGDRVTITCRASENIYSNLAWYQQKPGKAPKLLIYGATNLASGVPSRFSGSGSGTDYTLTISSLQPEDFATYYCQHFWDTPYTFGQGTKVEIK = 456000
Antibody 2E1_FD4 (antibody, V domains shown) VH: EVQLVESGGGLVQPGGSLRLSCAVSGYSITSGYYWNWIRQAPGKGLEWVAYISYDGNPNYNPSLKNRFTISRDTSKNTFYLQMNSLRAEDTAVYYCAREESTMITTAWFAYWGQGTLVTVSS VL: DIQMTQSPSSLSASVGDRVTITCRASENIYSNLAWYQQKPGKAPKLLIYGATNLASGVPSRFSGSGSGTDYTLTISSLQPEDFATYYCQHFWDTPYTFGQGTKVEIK = 431000

Input: Can you share its Bmax? I mean this binder: Antibody 2E1_GF8 (antibody, V domains shown) VH: EVQLVESGGGLVQPGGSLRLSCAVSGYSITSGYYWWWIRQAPGKGLEWVAYISYDGNNNYNPSLKNRFTISRDTSKNTFYLQMNSLRAEDTAVYYCAREESTMITTAWFAYWGQGTLVTVSS VL: DIQMTQSPSSLSASVGDRVTITCRGSENIYSNLAWYQQKPGKAPKLLIYGATNLASGVPSRFSGSGSGTDYTLTISSLQPEDFATYYCQHFWDTPYTFGQGTKVEIK
Output: 688000

Input: Can you share its Bmax? I mean this binder: Antibody 2E1_GA1 (antibody, V domains shown) VH: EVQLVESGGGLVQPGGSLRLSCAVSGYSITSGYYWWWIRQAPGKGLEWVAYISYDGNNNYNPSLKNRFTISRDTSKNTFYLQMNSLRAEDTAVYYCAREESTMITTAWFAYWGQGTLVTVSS VL: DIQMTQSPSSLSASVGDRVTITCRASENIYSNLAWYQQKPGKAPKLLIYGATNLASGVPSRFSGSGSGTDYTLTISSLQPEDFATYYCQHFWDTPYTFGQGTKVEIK
Output: 739000
